# MEASUREMENT TARGET: Chromobox protein homolog 1 (Homo sapiens) (UniProt P83916)
# Sequence (P83916 whole entry, looked up): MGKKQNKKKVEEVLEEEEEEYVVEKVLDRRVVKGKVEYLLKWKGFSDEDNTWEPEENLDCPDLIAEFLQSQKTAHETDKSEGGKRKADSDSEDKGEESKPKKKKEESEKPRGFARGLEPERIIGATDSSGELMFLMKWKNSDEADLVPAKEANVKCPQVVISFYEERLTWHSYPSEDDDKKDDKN
# ASSAY COMMENT: HTS for Inhibitors of HP1-beta Chromodomain Interactions with Methylated Histone Tails; also: nearly all actives have a fitted effect of over 70% in size
# TEST CONDITIONS: AlphaScreen HP1-beta / biotin-H3K9me3 peptide binding; series mostly up to 114 µM
Out of some 390,000 compounds screened, about 2,200 (0.56%) were called active. Roughly 3% stayed inconclusive and do not appear here. Calls follow the shape of the dose curve; as a rule, active = well fitted inhibition curve with a large enough effect; inconclusive = small, poorly fitted or top-dose-only effect; inactive = no such curve, though single readings can be large or run the other way. For the sample, actives were picked, then their nearest neighbours and some compounds at random.
Outcomes: active, inactive

molecule="COc1ccc(S(=O)(=O)NC(C)C(=O)N2CCCCCC2)cc1 (stereo not given)" discrete_label=inactive
molecule=COc1ccc(CCNS(=O)(=O)c2cc(-c3cc(C)no3)ccc2C)cc1OC discrete_label=inactive
molecule=COc1ccc2c(c1)C(=C(C#N)C#N)C(=O)N2CCc1ccccc1 discrete_label=active
molecule=Cc1nc2c(c(C)nn2-c2ccccc2)c(C)c1CCC(=O)NCCc1ccc(Cl)cc1 discrete_label=inactive
molecule=Cc1cc(C)c(/C=C/c2onc(C)c2S(=O)(=O)N2CCC(C(=O)Nc3ccc(Cl)cc3C)CC2)c(C)c1 discrete_label=inactive
molecule=CCOC(=O)c1ccccc1NC(=O)c1sc2nc(-c3ccc(F)cc3)cn2c1C discrete_label=inactive
molecule="CCOc1ccc(N2CC(C)Cn3c2nc2c3c(=O)n(Cc3c(F)cccc3Cl)c(=O)n2C)cc1 (stereo not given)" discrete_label=inactive
molecule=CCc1ccc(NC(=O)CN2C(=O)CCSc3ccc(S(=O)(=O)N4CCCC4)cc32)cc1 discrete_label=inactive
molecule=N#Cc1c(N2CCCCC2)nc(N)c2c(N)nc(SCC(=O)O)cc12 discrete_label=active
molecule="CC(C)C12CN3CC(C(C)C)(CN(C1)C3c1ccc(OCc3ccccc3)cc1)C2=O (stereo not given)" discrete_label=inactive

###

# MEASUREMENT TARGET: Chromobox protein homolog 1 (Homo sapiens) (UniProt P83916)
# ASSAY COMMENT: HTS for Inhibitors of HP1-beta Chromodomain Interactions with Methylated Histone Tails; also: nearly all actives have a fitted effect of over 70% in size
# TEST CONDITIONS: AlphaScreen HP1-beta / biotin-H3K9me3 peptide binding; series mostly up to 114 µM
Among all 390,000 compounds or so, about 2,200 (0.56%) were called active. Inconclusive results (about 3%) are left out. Calls come from the whole dose curve; as a rule, active = well fitted inhibition curve with a large enough effect; inconclusive = small, poorly fitted or top-dose-only effect; inactive = no such curve, though single readings can be large or run the other way. The list comes from a sample in which actives are over-represented; it also holds close analogues and randomly drawn compounds.
Outcomes: True = active, False = inactive

compound=COCCCn1c(SCC(=O)NC2CCCC2)nnc1-c1ccccc1 measurement_target="Chromobox protein homolog 1 (Homo sapiens) (UniProt P83916)" discrete_label=False
compound=Oc1c(CN2CCOCC2)ccc(CN2CCOCC2)c1O measurement_target="Chromobox protein homolog 1 (Homo sapiens) (UniProt P83916)" discrete_label=True
compound=C=CC(=O)Nc1ccc(Nc2ccnc(Nc3ccc(N4CCN(C)CC4)cc3)n2)cc1 measurement_target="Chromobox protein homolog 1 (Homo sapiens) (UniProt P83916)" discrete_label=True
compound="CCCC1CCC(=NNC(=S)NCCc2ccccc2)CC1 (stereo unspecified)" measurement_target="Chromobox protein homolog 1 (Homo sapiens) (UniProt P83916)" discrete_label=True
compound=Cc1csc2nc(COC(=O)c3ccccc3NC(=O)c3ccccc3Cl)cc(=O)n12 measurement_target="Chromobox protein homolog 1 (Homo sapiens) (UniProt P83916)" discrete_label=False
compound=CCn1c2ccccc2c2nnc(N3CCN(c4cc(C)ccc4C)CC3)nc21 measurement_target="Chromobox protein homolog 1 (Homo sapiens) (UniProt P83916)" discrete_label=False
compound=Cc1cc(Nc2cc(N3CCN(C)CC3)nc(Sc3ccc(NC(=O)C4CC4)cc3)n2)n[nH]1 measurement_target="Chromobox protein homolog 1 (Homo sapiens) (UniProt P83916)" discrete_label=False
compound=OCCN1CCOCCOCCN(CCO)CCN(CCO)CC1 measurement_target="Chromobox protein homolog 1 (Homo sapiens) (UniProt P83916)" discrete_label=False
compound="CC1CCCCC1NC(=O)CSc1nnc(-c2ccncc2)n1CCCN(C)C (stereo unspecified)" measurement_target="Chromobox protein homolog 1 (Homo sapiens) (UniProt P83916)" discrete_label=True
compound=CCCC(=O)NC(=S)Nc1ccc(CN2CCOCC2)cc1 measurement_target="Chromobox protein homolog 1 (Homo sapiens) (UniProt P83916)" discrete_label=False
compound=COC(=O)CCc1ccccc1S(=O)(=O)N(CCC(=O)OC)Cc1ccccc1 measurement_target="Chromobox protein homolog 1 (Homo sapiens) (UniProt P83916)" discrete_label=False

###

# MEASUREMENT TARGET: Chromobox protein homolog 1 (Homo sapiens)
# ASSAY COMMENT: HTS for Inhibitors of HP1-beta Chromodomain Interactions with Methylated Histone Tails; also: nearly all actives have a fitted effect of over 70% in size; also: potency is read from the fitted curve at half-maximal effect
# TEST CONDITIONS: AlphaScreen HP1-beta / biotin-H3K9me3 peptide binding; series mostly up to 114 µM
In all, about 390,000 compounds went through this assay and about 2,200 (0.56%) were called active. Another 3% or so got no clear call; they are omitted. Many of the other results were omitted from the sample, so actives are more common in it than they were.
VALUE KIND: Potency

smiles_notation=O=C(CN1CCCCCC1)Nc1ccc(Br)cc1[N+](=O)[O-] measurement_target="Chromobox protein homolog 1 (Homo sapiens)" data_value="50.1 µM (active)"
smiles_notation=COc1ccc(Cc2nc3ccc(C(=O)NCc4ccccc4C)cc3o2)cc1 measurement_target="Chromobox protein homolog 1 (Homo sapiens)" data_value=inactive
smiles_notation=CCN1/C(=C\c2ccc3ccccc3[n+]2CC)Sc2cc(C)ccc21 measurement_target="Chromobox protein homolog 1 (Homo sapiens)" data_value=inactive
smiles_notation=CCN1C(=O)c2ccccc2Sc2ccc(NC(=O)Cc3ccc(OC)cc3)cc21 measurement_target="Chromobox protein homolog 1 (Homo sapiens)" data_value=inactive
smiles_notation=O=C(CN1CCC(NC(=O)C2CC2)CC1)Nc1ccccc1[N+](=O)[O-] measurement_target="Chromobox protein homolog 1 (Homo sapiens)" data_value=inactive
smiles_notation=O=C(CN1CCCCCC1)Nc1ccc(Br)cc1Br measurement_target="Chromobox protein homolog 1 (Homo sapiens)" data_value=inactive

###

# MEASUREMENT TARGET: Chromobox protein homolog 1 (Homo sapiens)
# ASSAY COMMENT: HTS for Inhibitors of HP1-beta Chromodomain Interactions with Methylated Histone Tails; also: nearly all actives have a fitted effect of over 70% in size
# TEST CONDITIONS: AlphaScreen HP1-beta / biotin-H3K9me3 peptide binding; series mostly up to 114 µM
The campaign covered roughly 390,000 compounds. About 2,200 (0.56%) were called active. About 3% were inconclusive and are not listed. Calls follow the shape of the dose curve; as a rule, active = well fitted inhibition curve with a large enough effect; inconclusive = small, poorly fitted or top-dose-only effect; inactive = no such curve, though single readings can be large or run the other way. This is one part of a sample in which actives are shown more often than they occur.
Outcomes: 1.0 = active, 0.0 = inactive

molecule=COc1ccc(CN2CCC(=O)c3ccccc3S2(=O)=O)cc1 discrete_label=0.0
molecule=Cc1cccc(N2CCN(C(=O)c3ccc(Nc4nc5ccccc5n5nnnc45)cc3)CC2)c1C discrete_label=0.0
molecule=Cc1cccc(C)c1-n1c(C)cc(/C=C2\C(=O)NN(c3ccccc3)C2=O)c1C discrete_label=1.0
molecule=N#C/C(=C\C1=C(N2CCOCC2)C(=C\c2ccccc2)/CC1)C(=O)Nc1ccccc1F discrete_label=1.0
molecule=CCOC(=O)c1[nH]c(C)c(CCC(=O)N2CCN(c3ccccc3)CC2)c1C discrete_label=0.0
molecule="CCOC(=O)c1cc2c(=O)n3ccccc3nc2n(CC2CCCO2)c1=NC(=O)c1ccccc1Br (stereo unspecified)" discrete_label=0.0
molecule="CC1CC(C)CN(c2oc(-c3ccc(OCc4ccc(Cl)cc4)cc3)nc2C#N)C1 (stereo unspecified)" discrete_label=0.0
molecule="Oc1ccc(Br)cc1C1C=C(c2ccc3c(c2)OCO3)NC(c2ccc(Cl)cc2)N1 (stereo unspecified)" discrete_label=0.0
molecule=COC(=O)c1cc(NC(=O)c2cnc(SC)nc2-c2ccccc2)cc(C(=O)OC)c1 discrete_label=0.0
molecule=O=c1[nH]c2ccccc2n2c(-c3ccccc3)nnc12 discrete_label=1.0
molecule=CCCN(C(=O)Cn1ncc2c([nH]c3ccc(C)cc32)c1=O)c1ccccc1C discrete_label=0.0
molecule=Cc1ccc(-c2cn3c(n2)sc2cc(C(=O)NCCCc4ccccc4)ccc23)cc1 discrete_label=0.0
molecule=CCOc1ccc(NC(=O)c2cc(S(=O)(=O)N3CCCC3)c[nH]2)cc1 discrete_label=0.0
molecule=O=S(=O)(Nc1ccc2nc(-c3cccc(Cl)c3)oc2c1)c1ccccc1 discrete_label=0.0
molecule="C=C1CCN(C(CC(C)C)C(=O)NCc2cc(OC)c(OC)c(OC)c2)S(=O)(=O)c2ccccc21 (stereo unspecified)" discrete_label=0.0
molecule=O=c1ccc2c(-c3ccccc3S(=O)(=O)O)c3ccc(O)c(O)c3oc-2c1O discrete_label=1.0
molecule=Cc1nnc(C)n1-c1ccc(C(=O)Nc2cccc(Br)c2)cc1 discrete_label=0.0
molecule=COCCCn1c(Cc2csc(Nc3cccc(Cl)c3)n2)nnc1SCC(=O)OC1CCCCC1 discrete_label=1.0
molecule=COc1ccc(C(=O)COC(=O)CCCC(=O)Nc2cc(C(F)(F)F)ccc2Cl)cc1 discrete_label=0.0
molecule=CCCCSc1ncnc2c1sc1nc(N3CCOCC3)c3c(c12)CCCC3 discrete_label=0.0
molecule=O=c1cc(-c2ccccc2)n2c(SCc3ccccc3)nnc2[nH]1 discrete_label=0.0
